Target: Adrenergic receptor alpha-1 (Rattus norvegicus, UniProt P15823+P23944+P43140)
Test: Displacement of [3H]prazosin from Alpha-1 adrenergic receptor of whole rat brain membranes
Type: cell membranes, Membrane
reported metric: IC50 (nM)

| smiles string | reported metric | numeric value |
| --- | --- | --- |
| Cc1ccc2c(C3CCN(CCN4CCNC4=O)CC3)cn(-c3ccc(F)cc3)c2c1 | IC50 | 24 |
| CC(C)c1ccc2c(C3CCN(CCN4CCNC4=O)CC3)cn(-c3ccc(F)cc3)c2c1 | IC50 | 250 |
| CC(C)N1CCN(CCN2CCC(c3cn(-c4ccccc4)c4cc(Cl)ccc34)CC2)C1=O | IC50 | 39 |
| O=C1NCCN1CCN1CCC(c2cn(-c3ccc(F)cc3)c3ccccc23)CC1 | IC50 | 3 |

* * *

Biological target: D(2) dopamine receptor (Rattus norvegicus, UniProt P61169)
Sequence (P61169 whole entry): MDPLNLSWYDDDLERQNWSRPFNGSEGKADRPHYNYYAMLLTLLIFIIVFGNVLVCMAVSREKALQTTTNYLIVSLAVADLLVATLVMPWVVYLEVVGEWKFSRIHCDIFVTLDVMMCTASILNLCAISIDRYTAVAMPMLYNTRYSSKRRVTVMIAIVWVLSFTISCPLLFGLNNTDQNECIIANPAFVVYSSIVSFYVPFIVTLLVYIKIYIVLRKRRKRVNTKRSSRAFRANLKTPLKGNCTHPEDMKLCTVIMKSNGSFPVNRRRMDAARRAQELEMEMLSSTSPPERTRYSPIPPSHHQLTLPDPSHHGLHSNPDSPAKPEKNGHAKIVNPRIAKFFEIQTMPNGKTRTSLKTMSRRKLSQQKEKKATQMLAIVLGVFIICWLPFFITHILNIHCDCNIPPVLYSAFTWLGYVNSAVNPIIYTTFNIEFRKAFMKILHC
Assay: Displacement of [3H]-spiperone from Dopamine receptor D2 from rat striatal membranes

| smiles string | subject of test | display unit | IC50 |
| --- | --- | --- | --- |
| CC(C)N1CCN(CCN2CCC(c3cn(-c4ccccc4)c4cc(Cl)ccc34)CC2)C1=O | D(2) dopamine receptor (Rattus norvegicus, UniProt P61169) | nM | 290 |
| O=C1NCCN1CCN1CCC(c2cn(-c3ccc(F)cc3)c3cc(Cl)ccc23)CC1 | D(2) dopamine receptor (Rattus norvegicus, UniProt P61169) | nM | 56 |
| Cc1c(C2=CCN(CCN3CCNC3=O)CC2)c2ccccc2n1-c1ccc(F)cc1 | D(2) dopamine receptor (Rattus norvegicus, UniProt P61169) | nM | 160 |
| CC(C)c1ccc2c(C3CCN(CCN4CCNC4=O)CC3)cn(-c3ccc(F)cc3)c2c1 | D(2) dopamine receptor (Rattus norvegicus, UniProt P61169) | nM | 2600 |

* * *

Biological target: Adrenergic receptor alpha-1 (Rattus norvegicus, UniProt P15823+P23944+P43140)
Test: Displacement of [3H]prazosin from Alpha-1 adrenergic receptor of whole rat brain membranes
Assay type: cell membranes, Membrane
Label yes (1) when IC50 < 0.03 µM; otherwise no (0).

| smiles string | subject of test | class name |
| --- | --- | --- |
| O=C1NCCN1CCN1CCC(c2cn(-c3ccc(F)cc3)c3cc(C(F)(F)F)ccc23)CC1 | Adrenergic receptor alpha-1 (Rattus norvegicus, UniProt P15823+P23944+P43140) | no (0) |
| Cc1ccc2c(C3CCN(CCN4CCN(C(C)C)C4=O)CC3)cn(-c3ccc(Cl)cc3)c2c1 | Adrenergic receptor alpha-1 (Rattus norvegicus, UniProt P15823+P23944+P43140) | no (0) |
| Cc1ccc2c(C3CCN(CCN4CCN(C(C)C)C4=O)CC3)cn(-c3ccccc3)c2c1 | Adrenergic receptor alpha-1 (Rattus norvegicus, UniProt P15823+P23944+P43140) | no (0) |
| Cc1ccc2c(C3CCN(CCNC(=O)NC(C)C)CC3)cn(-c3ccc(F)cc3)c2c1 | Adrenergic receptor alpha-1 (Rattus norvegicus, UniProt P15823+P23944+P43140) | no (0) |
| Cc1ccc2c(C3CCN(CCNC(=O)N(C)C)CC3)cn(-c3ccc(F)cc3)c2c1 | Adrenergic receptor alpha-1 (Rattus norvegicus, UniProt P15823+P23944+P43140) | yes (1) |
| O=C1NCCN1CCN1CCC(c2cn(-c3ccc(F)cc3)c3cc(Cl)ccc23)CC1 | Adrenergic receptor alpha-1 (Rattus norvegicus, UniProt P15823+P23944+P43140) | yes (1) |
| Cc1c(C2CCN(CCN3CCNC3=O)CC2)c2ccccc2n1-c1ccc(F)cc1 | Adrenergic receptor alpha-1 (Rattus norvegicus, UniProt P15823+P23944+P43140) | no (0) |
| CC(C)NC(=O)N(C)CCN1CCC(c2cn(-c3ccc(F)cc3)c3cc(Cl)ccc23)CC1 | Adrenergic receptor alpha-1 (Rattus norvegicus, UniProt P15823+P23944+P43140) | yes (1) |
| CC(C)N1CCN(CCN2CCC(c3cn(-c4ccc(F)cc4)c4cc(F)ccc34)CC2)C1=O | Adrenergic receptor alpha-1 (Rattus norvegicus, UniProt P15823+P23944+P43140) | yes (1) |
